# target-or-test-system: T1, soluble EpoR (EposR) (human, UniProt P19235 25-250, limits assumed)
# T1 construct: also called soluble recombinant human EpoR
# T1 sequence (looked up): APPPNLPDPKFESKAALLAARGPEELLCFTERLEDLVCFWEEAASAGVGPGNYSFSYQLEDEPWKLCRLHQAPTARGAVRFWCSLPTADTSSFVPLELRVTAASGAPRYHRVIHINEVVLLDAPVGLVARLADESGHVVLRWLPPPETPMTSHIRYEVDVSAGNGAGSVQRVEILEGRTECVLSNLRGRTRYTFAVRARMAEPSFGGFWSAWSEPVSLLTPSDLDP
# test-name: SPR (BIAcore), IgG2/K antibody, EposR as test antigen
experimental-endpoint: kon (M⁻¹ s⁻¹)
Please state the figure in M⁻¹ s⁻¹; there is no need to write the unit.

// lookup kon for Ab12.70 (antibody, V domains shown, also called H2-4-1 R2 #8,9) VH: QVQLQESGPGLVKPSETLSLTCTVSGASISSYYWSWIRQPPGKGLEWIGYIYSPSSTNYNPSLKSRVTISVDTSKNQFSLKLRSVTAADTAVYYCARERLGIGDYWGQGTLVTVSS VL: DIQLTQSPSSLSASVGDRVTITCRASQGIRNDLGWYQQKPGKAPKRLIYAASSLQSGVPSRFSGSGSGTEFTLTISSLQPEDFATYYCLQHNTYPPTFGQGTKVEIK
160000

Ok, now Ab12 IgG2/K (antibody, V domains shown, Human IgG2/kappa) VH: QVQLQESGPGLVKPSETLSLTCTVSGASISSYYWSWIRQPPGKGLEWIGYIYYSGSTNYNPSLKSRVTISVDTSKNQFSLKLRSVTAADTAVYYCARERLGIGDYWGQGTLVTVSS VL: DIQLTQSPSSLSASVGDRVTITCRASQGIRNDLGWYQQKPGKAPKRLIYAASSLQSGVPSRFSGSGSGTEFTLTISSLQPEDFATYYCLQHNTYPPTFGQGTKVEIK
140000

Ab12.56 (antibody, V domains shown, CDRH2 Y Y S is changed to A G T against Ab12) VH: QVQLQESGPGLVKPSETLSLTCTVSGASISSYYWSWIRQPPGKGLEWIGYIAGTGSTNYNPSLKSRVTISVDTSKNQFSLKLRSVTAADTAVYYCARERLGIGDYWGQGTLVTVSS VL: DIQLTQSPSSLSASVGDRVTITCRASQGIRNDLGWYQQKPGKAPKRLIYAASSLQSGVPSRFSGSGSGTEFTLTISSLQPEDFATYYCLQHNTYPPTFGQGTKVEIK , same question.
94000

Try the binder Ab12.6 (antibody, V domains shown, CDRH2 Y Y S is changed to G G E against Ab12; also called H2-1-3 R2 #6) VH: QVQLQESGPGLVKPSETLSLTCTVSGASISSYYWSWIRQPPGKGLEWIGYIGGEGSTNYNPSLKSRVTISVDTSKNQFSLKLRSVTAADTAVYYCARERLGIGDYWGQGTLVTVSS VL: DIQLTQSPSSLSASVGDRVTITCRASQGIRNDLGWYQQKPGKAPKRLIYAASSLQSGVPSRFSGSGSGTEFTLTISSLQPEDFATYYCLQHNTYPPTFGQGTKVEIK
150000
